Record form. Attribute: melting point. Fill in for each entry.
Structures can show the parent of a compound that is named as a salt.

Here's what some known entries look like.
Clc1ccc(N2CC3CNCC(C3)C2)nn1 (as salt: fumaric acid salt) [Compound F1]
195.5 to 196.5 °C
CN1CC2CC(C1)CN(c1ccc(-c3ccccc3)nn1)C2 (as salt: fumaric acid salt)
213.9 to 220.8 °C
Clc1cncc(N2CC3CC(CN(Cc4ccccc4)C3)C2)n1 (as salt: fumaric acid salt)
183.1 to 183.3 °C

Report melting point, nothing else, for this compound: c1ccc(CN2CC3CC(C2)CN(c2ccc4ccccc4n2)C3)cc1 (as salt: fumaric acid salt) [Compound C3]
56.1 to 56.8 °C

###

tgt: nAChRs comprised of α4 and β2 subunits (Rattus norvegicus, UniProt P09483+P12390)
Construct: Cerebral corticies from male Wistar rats (150-250 g) are homogenized
Sequence (P12390 25-500): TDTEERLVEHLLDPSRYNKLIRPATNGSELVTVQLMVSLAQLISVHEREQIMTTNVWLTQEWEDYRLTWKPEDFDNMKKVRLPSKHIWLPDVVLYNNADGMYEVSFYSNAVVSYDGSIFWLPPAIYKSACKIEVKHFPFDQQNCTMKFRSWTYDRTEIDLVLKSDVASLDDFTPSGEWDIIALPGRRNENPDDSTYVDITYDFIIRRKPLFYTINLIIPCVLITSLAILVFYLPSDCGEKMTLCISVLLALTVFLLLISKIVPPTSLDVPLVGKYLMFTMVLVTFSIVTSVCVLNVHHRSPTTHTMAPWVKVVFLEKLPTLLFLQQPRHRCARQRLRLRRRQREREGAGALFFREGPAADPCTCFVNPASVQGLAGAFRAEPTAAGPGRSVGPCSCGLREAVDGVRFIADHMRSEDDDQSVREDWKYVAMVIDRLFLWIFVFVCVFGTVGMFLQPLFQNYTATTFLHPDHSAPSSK
Sequence (P09483 31-630): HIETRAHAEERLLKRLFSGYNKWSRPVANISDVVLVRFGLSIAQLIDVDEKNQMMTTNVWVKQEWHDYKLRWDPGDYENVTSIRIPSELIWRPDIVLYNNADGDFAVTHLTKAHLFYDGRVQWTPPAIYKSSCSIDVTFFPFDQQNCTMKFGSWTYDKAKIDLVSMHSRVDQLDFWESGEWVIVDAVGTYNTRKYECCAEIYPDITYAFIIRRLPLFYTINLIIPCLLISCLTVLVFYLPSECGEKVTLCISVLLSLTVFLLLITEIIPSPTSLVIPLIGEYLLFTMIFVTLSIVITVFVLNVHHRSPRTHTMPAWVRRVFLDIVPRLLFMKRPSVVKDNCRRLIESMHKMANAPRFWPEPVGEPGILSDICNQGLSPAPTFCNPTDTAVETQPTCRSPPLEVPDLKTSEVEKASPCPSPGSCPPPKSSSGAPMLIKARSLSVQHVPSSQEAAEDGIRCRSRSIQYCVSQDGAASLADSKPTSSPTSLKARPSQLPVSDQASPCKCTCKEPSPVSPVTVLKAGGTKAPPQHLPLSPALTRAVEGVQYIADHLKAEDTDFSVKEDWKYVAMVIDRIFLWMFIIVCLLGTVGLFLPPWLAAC
assay-remarks: In vitro inhibition of 3H-cytisine binding
experimental-parameters: cerebral cortex homogenate from male Wistar rats; 3H-cytisine 1 nM; 90 min at 2° C.
Would you kindly list pIC50 for each of these compounds?
Numbers only, as −log10 of the molar value.

Clc1cncc(N2CC3CNCC(C3)C2)n1 [Compound F2]
8.47

Turning now to a further record.
Please indicate recorded pIC50 of Clc1ccc(N2CC3CNCC(C3)C2)nn1 [Compound F1] measured with nAChRs comprised of α4 and β2 subunits (Rattus norvegicus, UniProt P09483+P12390).
8.52

###

Where a name gives a salt, the structure may show the parent alone.
assay-endpoint: melting point

Clc1ccc(N2CC3CC(CN(Cc4ccccc4)C3)C2)nn1 (as salt: fumaric acid salt)
204 to 205 °C
Clc1cncc(N2CC3CNCC(C3)C2)n1 (as salt: fumaric acid salt)
180.3 to 181.9 °C
O=[N+]([O-])c1ccc2nc(N3CC4CC(CN(Cc5ccccc5)C4)C3)ccc2c1 (as salt: fumaric acid salt)
168 to 172 °C

Okay, now this compound:
Give melting point for the following compound: C=CCN1CC2CC(C1)CN(c1ccc(-c3ccccc3)nn1)C2 (as salt: fumaric acid salt)
183.5 to 187.6 °C

###

tgt: serotonin transporter (Rattus norvegicus, UniProt P31652)
Construct: Cerebral cortices from male Wistar rats (150-200 g) are homogenized
Sequence (P31652 whole entry): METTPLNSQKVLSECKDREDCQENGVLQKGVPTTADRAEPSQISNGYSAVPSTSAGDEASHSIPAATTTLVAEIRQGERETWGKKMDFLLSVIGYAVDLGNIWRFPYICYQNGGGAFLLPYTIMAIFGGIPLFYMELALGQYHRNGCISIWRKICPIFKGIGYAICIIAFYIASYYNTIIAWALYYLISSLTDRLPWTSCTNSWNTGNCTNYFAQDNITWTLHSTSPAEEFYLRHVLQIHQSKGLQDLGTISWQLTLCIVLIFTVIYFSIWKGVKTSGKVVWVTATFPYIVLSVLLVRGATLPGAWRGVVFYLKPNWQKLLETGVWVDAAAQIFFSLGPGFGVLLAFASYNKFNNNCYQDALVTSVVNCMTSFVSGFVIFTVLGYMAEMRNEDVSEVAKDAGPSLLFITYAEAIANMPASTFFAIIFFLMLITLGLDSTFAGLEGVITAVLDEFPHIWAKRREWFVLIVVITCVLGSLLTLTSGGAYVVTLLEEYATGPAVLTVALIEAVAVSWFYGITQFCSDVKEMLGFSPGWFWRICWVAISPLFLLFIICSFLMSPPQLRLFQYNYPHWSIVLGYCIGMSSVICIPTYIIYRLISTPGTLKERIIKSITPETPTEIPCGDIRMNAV
assay-remarks: In vitro inhibition of 3H-5-hydroxytryptamine (3H-5-HT, serotonin) uptake in cortical synaptosomes
experimental-parameters: cortical synaptosomes from male Wistar rats; 3H-5-HT 1 nM; 30 min at 37° C.
Exercise: for every item that follows, state its recorded IC50.
One number for each entry, in nM.

c1ccc(CN2CC3CC(C2)CN(c2ccc4ccccc4n2)C3)cc1
22

Now take the following compound into account.
Give serotonin transporter (Rattus norvegicus, UniProt P31652) IC50 for the following compound: O=[N+]([O-])c1ccc2nc(N3CC4CC(CN(Cc5ccccc5)C4)C3)ccc2c1
5.7
